Here the recorded Population Fragmented Nuclei (%) is given for each entry.
test system: Fibroblast; test: Multiplex assay against human fibroblast; format: toxicity, cell-based; settings: 24 h, 1 µM, compound concentration 1 uM, replicate 1
assay metric: Population Fragmented Nuclei (%)

{"columns": ["molecule", "readout value"],
 "data": [
  ["C[C@@]1(C(=O)Nc2ccc(F)nc2)CCCN1c1nc(Nc2cc(C3CC3)n[nH]2)c2cccn2n1 [BMS-754807]", 27],
  ["C[C@@H](NCCCc1cccc(C(F)(F)F)c1)c1cccc2ccccc12.Cl [CINACALCET HYDROCHLORIDE]", 25],
  ["CC[C@H](C)C(=O)O[C@H]1C[C@@H](C)C=C2C=C[C@H](C)[C@H](CC[C@@H]3C[C@@H](O)CC(=O)O3)[C@H]21 [LOVASTATIN]", 36],
  ["C=CC(=O)Nc1cccc(C(=O)Nc2ccc(Nc3cc(-c4[nH]c(SC)nc4C)ccn3)cc2)c1", 20]
]}
